Reference source for all entries: patent US20240018121A1

- Test system: Candida albicans GDH2346
- METHOD NOTES: Candida Minimal Inhibitory Concentration (MIC)
- Assay type: cell-based
- RECORDED CONDITIONS: Candida albicans, GDH2346, 48 h, read-out: MIC-50 Candida albicans GDH2346
Where a name gives a salt, the structure may show the parent alone.
Below, each entry is listed with its recorded MIC50.
Write the value in µg/mL as a bare number.

| MOLECULE | METRIC | VALUE MEASURED |
| --- | --- | --- |
| N=C(N)N1CC=C(c2ccc(-c3nnc(-c4ccc(C5=CCN(C(=N)N)CC5)cc4F)n3CCCO)c(F)c2)CC1 [Example 73, hydrochloride] | MIC50 | 0.2 |
| N=C(N)N1CC=C(c2ccc(-c3nnc(-c4ccc(C5=CCN(C(=N)N)CC5)cc4)n3C3CCCC3)cc2)CC1 [Example 69, trifluoroacetate] | MIC50 | 0.39 |
| Cn1c(-c2cc(F)c(C3=CCN(C(=N)N)CC3)c(F)c2)nnc1-c1ccc(C2=CCN(C(=N)N)CC2)cc1F [Example 85, trifluoroacetate] | MIC50 | 0.1 |
| COCCn1c(-c2ccc(C3=CCN(C(=N)N)CC3)cc2F)nnc1-c1ccc(C2=CCN(C(=N)N)CC2)cc1F [Example 68, trifluoroacetate] | MIC50 | 0.2 |

Assign MIC50 to the following record: COCCn1c(-c2ccc(C3=CCN(C(=N)N)CC3)cc2)nnc1-c1ccc(C2=CCN(C(=N)N)CC2)cc1 [Example 67, trifluoroacetate] 0.2

Assign MIC50 to the following record: Cn1c(-c2ccc(C3=CCN(C(=N)N)CC3)cc2)nnc1-c1ccc(C2=CCN(C(=N)N)CC2)cc1F [Example 78, trifluoroacetate] 0.2

Assign MIC50 to the following record: Cn1c(-c2ccc(C3=CCC(C(=N)N)CC3)cc2F)nnc1-c1ccc(C2=CCC(C(=N)N)CC2)cc1F (stereo not drawn) [Example 87, trifluoroacetate] 0.2

Assign MIC50 to the following record: N=C(N)N1CC=C(c2ccc(-c3nnc(-c4ccc(C5=CCN(C(=N)N)CC5)cc4F)n3CCO)cc2)CC1 [Example 82, hydrochloride] 0.2

Assign MIC50 to the following record: N=C(N)N1CC=C(c2ccc(-c3nnc(-c4ccc(C5=CCN(C(=N)N)CC5)cc4F)n3CC(F)(F)F)c(F)c2)CC1 [Example 84, hydrochloride] 0.2

###

- System: Mucor ramosissimus 057718 (ATCC 90286)
- METHOD NOTES: Fungal MIC Protocol, Mucor ramosissimus (MIC-50)
- Assay type: cell-based
- RECORDED CONDITIONS: Mucor ramosissimus, ATCC90286, 48 h, read-out: MIC-50 Mucorales ramosissimus 90286
Where a name gives a salt, the structure may show the parent alone.
Lab note: cut-off is 3 µg/mL. Strictly less in MIC50 is true (1). Exactly 3 µg/mL or more is false (0).

Look over these answered cases.
| COMPOUND | LABEL VALUE |
| --- | --- |
| CC(CO)n1c(-c2ccc(C3=CCN(C(=N)N)CC3)cc2F)nnc1-c1ccc(C2=CCN(C(=N)N)CC2)cc1F (centres unmarked) [Example 83, hydrochloride] | false (0) |
| Cn1c(-c2ccc(C3=CCN(C(=N)N)CC3)cc2)nnc1-c1ccc(C2=CCN(C(=N)N)CC2)cc1F [Example 78, trifluoroacetate] | true (1) |
| N=C(N)N1CC=C(c2ccc(-c3nnc(-c4ccc(C5=CCN(C(=N)N)CC5)cc4F)n3CCCO)c(F)c2)CC1 [Example 73, hydrochloride] | false (0) |
| Cn1c(-c2cc(F)c(C3=CCN(C(=N)N)CC3)c(F)c2)nnc1-c1ccc(C2=CCN(C(=N)N)CC2)cc1F [Example 85, trifluoroacetate] | true (1) |
| N=C(N)N1CC=C(c2ccc(-c3nnc(-c4ccc(C5=CCN(C(=N)N)CC5)cc4F)n3CC(F)(F)F)c(F)c2)CC1 [Example 84, hydrochloride] | true (1) |

Decide: MIC50 of CC(O)Cn1c(-c2ccc(C3=CCN(C(=N)N)CC3)cc2F)nnc1-c1ccc(C2=CCN(C(=N)N)CC2)cc1F (centres unmarked) [Example 66, trifluoroacetate] strictly below 3 µg/mL? false (0)

Decide: MIC50 of N=C(N)N1CC=C(c2ccc(-c3nnc(-c4ccc(C5=CCN(C(=N)N)CC5)c(C(F)(F)F)c4)n3CCO)cc2C(F)(F)F)CC1 [Example 80, hydrochloride] strictly below 3 µg/mL? false (0)

Decide: MIC50 of Cn1c(-c2ccc(C3=CCC(C(=N)N)CC3)cc2F)nnc1-c1ccc(C2=CCC(C(=N)N)CC2)cc1F (centres unmarked) [Example 87, trifluoroacetate] strictly below 3 µg/mL? false (0)

Decide: MIC50 of CC(C)(O)Cn1c(-c2ccc(C3=CCN(C(=N)N)CC3)cc2F)nnc1-c1ccc(C2=CCN(C(=N)N)CC2)cc1F [Example 74, hydrochloride] strictly below 3 µg/mL? false (0)

Decide: MIC50 of COc1cc(C2=CCN(C(=N)N)CC2)ccc1-c1nnc(-c2ccc(C3=CCN(C(=N)N)CC3)cc2OC)n1CCO [Example 75, trifluoroacetate] strictly below 3 µg/mL? false (0)

Decide: MIC50 of N=C(N)N1CC=C(c2ccc(-c3nnc(-c4ccc(C5=CCN(C(=N)N)CC5)cc4F)n3CCO)cc2)CC1 [Example 82, hydrochloride] strictly below 3 µg/mL? true (1)

Decide: MIC50 of COCCn1c(-c2ccc(C3=CCN(C(=N)N)CC3)cc2)nnc1-c1ccc(C2=CCN(C(=N)N)CC2)cc1 [Example 67, trifluoroacetate] strictly below 3 µg/mL? true (1)

Decide: MIC50 of N=C(N)N1CC=C(c2ccc(-c3nnc(-c4ccc(C5=CCN(C(=N)N)CC5)cc4)n3C3CCCC3)cc2)CC1 [Example 69, trifluoroacetate] strictly below 3 µg/mL? true (1)

Decide: MIC50 of COCCn1c(-c2ccc(C3=CCN(C(=N)N)CC3)cc2F)nnc1-c1ccc(C2=CCN(C(=N)N)CC2)cc1F [Example 68, trifluoroacetate] strictly below 3 µg/mL? true (1)
